molecular target: Human-recombinant-S-Adenosyl-L-Homocysteine Hydrolase (Homo sapiens); test: Measurement of enzyme inhibitory activity (hydrolysis of S-Adenosyl-L-Homocysteine, HPLC); details: S-Adenosyl-L-Homocysteine 10 μM, pH 7.2, 37° C., 15 min
Counter-ions that a name gives are not always drawn.
Threshold 0.03 µM. IC50 below it: Criterion met. IC50 at it or above: Criterion not met.

Please state whether IC50 is below 0.03 µM for CCNCCNC(=O)CN(CC(=O)N(C)N1Cc2ccc(F)cc2C1)c1ccc(-c2noc(C)n2)cc1C [Example 204]
Criterion not met

Thanks! And CCNCCNC(=O)CN(CC(=O)N(C)N1Cc2ccccc2C1)c1cc2c(cc1C)CCC2=O [Example 214] ?
Criterion met

Thanks! And CCNCCNC(=O)CN(CC(=O)N(C)N1Cc2ccccc2C1)c1cc2cn(CC)nc2cc1C [Example 247, hydrochloride] ?
Criterion met

Thanks! And CCNCCNC(=O)CN(CC(=O)N(C)N1Cc2cccc(F)c2C1)c1cc(-c2noc(C)n2)ccc1C [Example 19] ?
Criterion not met

Thanks! And Cc1cc2oc(=O)n(C)c2cc1N(CC(=O)NCCNC(C)C)CC(=O)N(C)N1Cc2ccccc2C1 [Example 190] ?
Criterion not met

Thanks! And CCNCCNC(=O)CN(CC(=O)N(C)N1Cc2ccc(F)cc2C1)c1cc2c(C)nn(C)c2cc1C [Example 256, hydrochloride] ?
Criterion not met

Thanks! And CCNCCNC(=O)CN(CC(=O)N(C)N1Cc2cccc(F)c2C1)c1ccc(-c2noc(C)n2)cc1C [Example 205] ?
Criterion not met

Thanks! And CCNCCNC(=O)CN(CC(=O)N(C)N1Cc2ccccc2C1)c1ccc(N2CCCC2=O)cc1C [Example 298, dihydrochloride] ?
Criterion not met

Thanks! And CCNCCNC(=O)CN(CC(=O)N(C)N1Cc2ccccc2C1)c1cc2c(cc1C)CN(CC)C2=O [Example 284, dihydrochloride] ?
Criterion not met

Thanks! And CCNCCNC(=O)CN(CC(=O)N(C)N1Cc2ccccc2C1)c1cc2onc(C)c2cc1C [Example 185] ?
Criterion met

Thanks! And CCNCCNC(=O)CN(CC(=O)N(C)N1Cc2ccccc2C1)c1ccc(-n2cc(C(N)=O)cn2)cc1C [Example 303, dihydrochloride] ?
Criterion not met

Thanks! And Cc1cc2c(cnn2C)cc1N(CC(=O)NCCNC(C)C)CC(=O)N(C)N1Cc2ccccc2C1 [Example 242, hydrochloride] ?
Criterion met

Thanks! And CCNCCNC(=O)CN(CC(=O)N(C)N1Cc2ccccc2C1)c1cc(-c2noc(C(F)(F)F)n2)ccc1C [Example 287, dihydrochloride] ?
Criterion not met

Thanks! And CCN1C(=O)CCc2cc(N(CC(=O)NCCNC(C)C)CC(=O)N(C)N3Cc4ccccc4C3)c(C)cc21 [Example 176] ?
Criterion not met

Thanks! And CCNCCNC(=O)CN(CC(=O)N(C)N1Cc2ccc(F)cc2C1)c1ccc(C(C)=O)cc1C [Example 211] ?
Criterion not met

---

Record form. Attribute: pIC50. Fill in for each entry.
target: Human-recombinant-S-Adenosyl-L-Homocysteine Hydrolase (Homo sapiens, UniProt P23526); assay: Measurement of enzyme inhibitory activity (hydrolysis of S-Adenosyl-L-Homocysteine, HPLC); details: S-Adenosyl-L-Homocysteine 10 μM, pH 7.2, 37° C., 15 min
Sequence (P23526 whole entry): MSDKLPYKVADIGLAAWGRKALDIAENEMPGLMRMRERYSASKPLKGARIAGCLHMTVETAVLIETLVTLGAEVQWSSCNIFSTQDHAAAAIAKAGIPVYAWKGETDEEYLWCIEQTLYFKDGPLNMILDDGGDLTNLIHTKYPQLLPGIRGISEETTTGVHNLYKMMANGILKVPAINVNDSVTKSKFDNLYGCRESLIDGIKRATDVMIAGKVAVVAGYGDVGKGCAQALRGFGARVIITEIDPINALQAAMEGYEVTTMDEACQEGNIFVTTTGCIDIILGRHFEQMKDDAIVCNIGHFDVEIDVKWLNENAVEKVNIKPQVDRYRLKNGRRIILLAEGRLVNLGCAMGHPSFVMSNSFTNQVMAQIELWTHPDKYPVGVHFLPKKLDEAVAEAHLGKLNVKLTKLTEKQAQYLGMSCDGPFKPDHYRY
Structures can show the parent of a compound that is named as a salt.
# pIC50 is unitless: minus log10 of the molar concentration; print number only

What value of pIC50 has been reported for the following compound? CCNCCNC(=O)CN(CC(=O)N(C)N1Cc2ccccc2C1)c1cc(C#N)ccc1C [Example 2, dihydrochloride]
7.04

Thanks! And CCNCCNC(=O)CN(CC(=O)N(C)N1Cc2ccc(F)cc2C1)c1cc2c(cnn2C)cc1C [Example 259, hydrochloride] ?
7.52

Thanks! And CCNCCNC(=O)CN(CC(=O)N(C)N1Cc2ccccc2C1)c1cc2c(cc1C)N(CC)C(=O)CC2 ?
7.34

Thanks! And CCNCCNC(=O)CN(CC(=O)N(C)N1Cc2ccc(F)cc2C1)c1ccc(-c2nc(C(N)=O)cs2)cc1C [Example 308, dihydrochloride] ?
7.59
